# target under test: PRMT5/MEP50 complex (Homo sapiens)
# Sequence (O14744 whole entry): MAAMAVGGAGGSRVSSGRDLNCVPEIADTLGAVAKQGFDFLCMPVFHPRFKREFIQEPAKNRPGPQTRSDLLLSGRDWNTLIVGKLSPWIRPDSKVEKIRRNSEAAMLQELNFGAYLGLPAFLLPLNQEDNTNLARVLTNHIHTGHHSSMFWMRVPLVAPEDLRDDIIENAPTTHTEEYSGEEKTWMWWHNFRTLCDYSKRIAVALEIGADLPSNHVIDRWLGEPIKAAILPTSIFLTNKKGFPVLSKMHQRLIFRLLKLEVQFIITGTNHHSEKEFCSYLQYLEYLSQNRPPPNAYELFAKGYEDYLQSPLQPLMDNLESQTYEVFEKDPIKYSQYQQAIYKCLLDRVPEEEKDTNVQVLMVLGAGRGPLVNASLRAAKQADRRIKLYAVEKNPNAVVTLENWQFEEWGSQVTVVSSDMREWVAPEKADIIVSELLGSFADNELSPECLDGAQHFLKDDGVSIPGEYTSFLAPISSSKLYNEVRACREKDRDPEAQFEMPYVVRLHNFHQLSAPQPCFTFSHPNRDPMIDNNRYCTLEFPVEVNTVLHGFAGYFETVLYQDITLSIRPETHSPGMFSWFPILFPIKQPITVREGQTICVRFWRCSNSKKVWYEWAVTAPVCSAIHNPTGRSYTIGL
# Sequence (Q9BQA1 whole entry, further chain): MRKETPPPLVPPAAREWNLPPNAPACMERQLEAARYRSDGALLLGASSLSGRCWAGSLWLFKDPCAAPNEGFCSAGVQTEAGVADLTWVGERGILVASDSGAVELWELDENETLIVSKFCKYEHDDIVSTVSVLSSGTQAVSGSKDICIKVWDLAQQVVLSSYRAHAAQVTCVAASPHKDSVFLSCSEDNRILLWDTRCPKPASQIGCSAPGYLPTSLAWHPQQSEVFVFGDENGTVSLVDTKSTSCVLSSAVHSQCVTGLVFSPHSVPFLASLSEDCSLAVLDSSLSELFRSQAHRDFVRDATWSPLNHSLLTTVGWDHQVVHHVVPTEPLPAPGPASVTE
# experiment description: Inhibition of recombinant human N-terminal FLAG-tagged PRMT5 (2 to end residues) /human N-terminal His-tagged MEP50 (2 to end residues) expressed in HEK293F cells using histone H4 as substrate preincubated for 15 mins followed by substrate/S-adenosyl methionine addition measured after 60 mins by alpha LISA assay
# Set-up: species or system HEK293
Mark T only when IC50 stays strictly below 8 µM. Values equal to the cut-off are F.

Query :: Report whether reported IC50 is lower than 8 µM (strictly) for "COC(=O)c1ccccc1NC(=O)CSc1nc2c(C)cccc2[nH]1"
Result :: F

Query :: Now try "COC(=O)c1ccccc1NC(=O)CSc1nc2cc(F)ccc2[nH]1" .
Result :: T

Query :: Now try "COc1ccc2[nH]c(SCC(=O)Nc3ccccc3C(C)=O)nc2c1" .
Result :: T

Query :: Now try "Clc1ccc(CNCC2CCNCC2)cc1Cl" .
Result :: F

Query :: Now try "COC(=O)c1ccncc1NC(=O)CSc1nc2cc(OC)ccc2[nH]1" .
Result :: T

Query :: Now try "COc1ccc2[nH]c(SCC(=O)Nc3ccccc3)nc2c1" .
Result :: F
